Catalogue of Plant response rating, Morningglory readings, one per entry.
tested on: morningglory; assay: Test C pre-/postemergence herbicide test; format: in vivo, Ipomoea coccinea; design: key: 0 = no effect, 100 = complete control; settings: 500 g ai/ha; scale 0 to 100 (0 no effect, 100 complete control); visual, 12 to 14 days; preemergence
Write the value as a bare number.

CCc1nn(C(C)C)nc1C(=O)Nc1cccc(C(=O)N(C)CC)c1 [Compound 386] ... 100

Inquiry: For CCN(CC)C(=O)c1cccc(NC(=O)c2cc(C(C)(C)C)nn2C)n1 [Compound 314] , what is its reported Plant response rating, Morningglory?
Reply text: 40

Inquiry: For CCNC(=S)c1cccc(NC(=O)c2nn(C(C)(C)C)nc2C)c1 [Compound 420] , what is its reported Plant response rating, Morningglory?
Reply text: 100

Inquiry: For CCc1nn(C(C)C)nc1C(=O)Nc1cccc(C(=O)N2CCCCC2)c1 [Compound 385] , what is its reported Plant response rating, Morningglory?
Reply text: 100
